# System: CD2F1 mice, L1210 leukemia ip, survival T/C
# run_description: NCI In Vivo Anticancer Drug Screen. Data for tumor model L1210 Leukemia (intraperitoneal) in CD2F1 (CDF1) mice
# condition: endpoint: mean survival time; dose: 100.0 mg/kg/injection; schedule: Q01DX001 (ip); vehicle: saline; higher = longer survival
Inconclusive results and toxic doses are left out.
metric: T/C

As a guide, the following entries are already answered.
compound: CCCCCCCCNC(=O)CC
metric: T/C
meas_value: 103 % of control

compound: Cc1cc(C)c(S(=O)O)c(C)c1
metric: T/C
meas_value: 103 % of control

compound: CCOC(=S)SCCCC(C)CC (configuration not stated)
metric: T/C
meas_value: 100 % of control

Would you kindly look at the next entry?
Query string: Data request, read-out T/C, for COc1ccc(CCNC(=O)Cc2cc3c(cc2[N+](=O)[O-])OCO3)cc1OC
Result string: 95 % of control

---

# Tested on: CD2F1 mice, L1210 leukemia ip, survival T/C
# run_description: NCI In Vivo Anticancer Drug Screen. Data for tumor model L1210 Leukemia (intraperitoneal) in CD2F1 (CDF1) mice
# condition: endpoint: mean survival time; dose: 100.0 mg/kg/injection; schedule: Q01DX001 (ip); vehicle: carboxymethylcellulose (CMC); higher = longer survival
Toxic doses and inconclusive results are not listed.
metric: T/C

Study these solved cases before continuing.
compound: CCOC(OCC)n1ncnc1NC(=S)NCc1ccccc1
T/C: 108 % of control

compound: CS(=O)(=O)OC1CS(=O)(=O)Cc2ccccc21 (centres undefined)
T/C: 101 % of control

Query string: Item O=c1[nH]c(=S)nc2nc[nH]n12 has what recorded T/C?
Result string: 97 % of control

Query string: Entry CCNc1ncnc2nncnc12 has what T/C?
Result string: 98 % of control

---

# Test system: CD2F1 mice, L1210 leukemia ip, survival T/C
# run_description: NCI In Vivo Anticancer Drug Screen. Data for tumor model L1210 Leukemia (intraperitoneal) in CD2F1 (CDF1) mice
# condition: endpoint: mean survival time; dose: 50.0 mg/kg/injection; schedule: Q04DX003 (ip); vehicle: other; higher = longer survival
Inconclusive results and toxic doses are left out.
metric: T/C

compound: CCCCCCCCCCCCCCCCCCCC
T/C: 91 % of control
--
compound: Nc1cc2c(c[n+](CCCBr)c3ccccc23)c2ccccc12
T/C: 87 % of control
--
compound: CCCCNC(C)(C)C(S)c1ccc(Cl)cc1 (centres undefined)
T/C: 94 % of control

In the following, a different compound is considered.
Query string: Given the entry Cc1ccc(S(=O)(=O)N/N=C\c2cccnc2)cc1 , report its measured T/C.
Result string: 97 % of control

---

# key: entry, value: T/C
# System: CD2F1 mice, L1210 leukemia ip, survival T/C
# run_description: NCI In Vivo Anticancer Drug Screen. Data for tumor model L1210 Leukemia (intraperitoneal) in CD2F1 (CDF1) mice
# condition: endpoint: mean survival time; dose: 25.0 mg/kg/injection; schedule: Q04DX002 (ip); vehicle: saline with Tween-80; higher = longer survival
Inconclusive results and toxic doses are left out.

compound: CCOC(=O)C1C2CCC(O2)C1C#N (stereo unspecified)
target_under_test: CD2F1 mice, L1210 leukemia ip, survival T/C
metric: T/C
meas_value: 98 % of control

Query string: Need T/C of CC(=O)OC1(c2ccccc2)CC(=O)C=C1c1ccccc1 (stereo unspecified) , thanks.
Result string: 102 % of control

Query string: T/C for O=C(NCCNC(=O)c1ccccc1)c1ccccc1 ?
Result string: 93 % of control

Query string: # get_value(readout='T/C', item= O=[N+]([O-])c1cccc2c1cc([N+](=O)[O-])c1cccnc12 )
Result string: 98 % of control

Query string: Need T/C of COc1ccc(N(C)c2ccc(C(=C3C=CC(=[N+](C)CCO)C=C3)c3ccc(N(C)CCO)cc3)cc2)cc1 , thanks.
Result string: 108 % of control

Query string: Entry CC1SC(C(C)(C)C)SC(C)C1C(C)(C)C (stereo unspecified) has what T/C?
Result string: 102 % of control

---

# Test system: CD2F1 mice, L1210 leukemia ip, survival T/C
# run_description: NCI In Vivo Anticancer Drug Screen. Data for tumor model L1210 Leukemia (intraperitoneal) in CD2F1 (CDF1) mice
# condition: endpoint: mean survival time; dose: 5.0 mg/kg/injection; schedule: Q01DX001 (ip); vehicle: saline; higher = longer survival
# Procedure: The antitumor activity of compounds was measured in mice bearing transplantable tumors. Survival or tumor size were measured and the results are expressed as the measurement made in the treated group (T) divided by the measurement made in the vehicle treated control group (C). The tumor model used in this assay is L1210 Leukemia (intraperitoneal) in CD2F1 (CDF1) mice
Inconclusive results and toxic doses are left out.
The following molecules are listed with their measured T/C values.

Query string: Requested read-out: T/C. Entry: O=[N+]([O-])c1c[n+]([O-])ccc1Cl
Result string: 101 % of control

Query string: Item c1cc2c(cc1CC1CCNC1)OCO2 (stereo unspecified) has what recorded T/C?
Result string: 103 % of control

Query string: Data request, read-out T/C, for CC(O)CC1CCCC(CC(C)O)N1 (stereo unspecified)
Result string: 103 % of control

Query string: Query: T/C; subject: CC(=O)NC1=CC(=O)C(C)=CC1=O
Result string: 98 % of control

Query string: What does the record list as T/C for CCCC(=O)NC1=C(Cl)C(=O)c2ccccc2C1=O ?
Result string: 88 % of control

Query string: So what does the record say about T/C for Cc1cccc(C)c1OC(=O)Cl ?
Result string: 98 % of control

---

List of T/C values.
# Test system: CD2F1 mice, L1210 leukemia ip, survival T/C
# run_description: NCI In Vivo Anticancer Drug Screen. Data for tumor model L1210 Leukemia (intraperitoneal) in CD2F1 (CDF1) mice
# condition: endpoint: mean survival time; dose: 25.0 mg/kg/injection; schedule: Q01DX009 (ip); vehicle: Klucel (hydroxypropylcellulose) (HPC); higher = longer survival
Inconclusive results and toxic doses are left out.

Some solved entries appear below for comparison.
compound: Nc1c(Cl)c(Cl)nc(C(=O)O)c1Cl
metric: T/C
meas_value: 98 % of control

compound: Cc1nn(CCO)c(C)c1N=[N+]([O-])c1c(C)nn(CCO)c1C
metric: T/C
meas_value: 95 % of control

compound: CCOC(=O)C(C)C(=O)NCc1ccccc1 (stereo not given)
metric: T/C
meas_value: 95 % of control

compound: CC1(C)CC(C)(OC(=O)c2ccccc2)N=N1 (stereo not given)
metric: T/C
meas_value: 97 % of control

Turning now to a further compound:
Query string: Need T/C, item Nc1nc(Cl)c2nnn(C3CC(O)C(CO)C3)c2n1 (stereo not given)
Result string: 117 % of control

---

Property: T/C; scope: individual compounds
# Tested on: CD2F1 mice, L1210 leukemia ip, survival T/C
# run_description: NCI In Vivo Anticancer Drug Screen. Data for tumor model L1210 Leukemia (intraperitoneal) in CD2F1 (CDF1) mice
# condition: endpoint: mean survival time; dose: 200.0 mg/kg/injection; schedule: Q04DX003 (ip); vehicle: saline with Tween-80; higher = longer survival
Toxic doses and inconclusive results are not listed.

Past entries and their recorded results:
compound: Nc1ccc2c(c1)[nH]c1ccccc12
T/C: 101 % of control

compound: Cc1ccc(S(=O)(=O)OC2CCC3(C)C(CCC4C3CCC3(C)C(C(C)CCCC(C)C)CCC43)C2)cc1 (configuration not stated)
T/C: 90 % of control

compound: O=C(O)CCC(NC(=O)OCc1ccccc1)C(=O)OCc1ccccc1 (configuration not stated)
T/C: 93 % of control

compound: O=C(/C=C/c1ccc2c(c1)OCO2)c1ccc(Cl)cc1
T/C: 89 % of control

compound: CCC(=O)Nc1ccc(C)c(Cl)c1
T/C: 95 % of control

compound: [O-][n+]1c2cccc(O)c2[n+]([O-])c2cccc(O)c21
T/C: 100 % of control

compound: CCCCCCCC(=O)Nc1ccc(-n2c(=O)cc(C)n2C)cc1
T/C: 97 % of control

compound: CC(=O)Nc1ccc([N+](=O)[O-])cc1C
T/C: 103 % of control

Query string: Given O=CNc1ccccc1Cl , state its recorded T/C.
Result string: 95 % of control

---

# Tested on: CD2F1 mice, L1210 leukemia ip, survival T/C
# run_description: NCI In Vivo Anticancer Drug Screen. Data for tumor model L1210 Leukemia (intraperitoneal) in CD2F1 (CDF1) mice
# condition: endpoint: mean survival time; dose: 100.0 mg/kg/injection; schedule: Q04DX003 (ip); vehicle: distilled water + Tween-80; higher = longer survival
Toxic doses and inconclusive results are not listed.
metric: T/C

# example entries with known answers
molecular_string: O=P(O)(O)CP(=O)(O)O.[NH-]CC[NH-].[NH-]CC[NH-].[Pt+2].[Pt+2]
target_under_test: CD2F1 mice, L1210 leukemia ip, survival T/C
T/C: 109 % of control

molecular_string: [I][Pt+2][I].[NH-]c1ccccc1F.[NH-]c1ccccc1F
target_under_test: CD2F1 mice, L1210 leukemia ip, survival T/C
T/C: 98 % of control

molecular_string: O=C(C=P(CC[PH+](Cc1ccccc1)Cc1ccccc1)(Cc1ccccc1)Cc1ccccc1)c1ccccc1.[Cl][Pd][Cl]
target_under_test: CD2F1 mice, L1210 leukemia ip, survival T/C
T/C: 96 % of control

molecular_string: Nc1cc(=O)[nH]c(=S)[nH]1.[Pt]
target_under_test: CD2F1 mice, L1210 leukemia ip, survival T/C
T/C: 99 % of control

Shift focus to the following entry.
Query string: Fill in the blank: the reported T/C of O=C(O)c1cc(C(=O)O)c(C(=O)O)cc1C(=O)O.[NH-]C1CCCC1.[NH-]C1CCCC1.[NH-]C1CCCC1.[NH-]C1CCCC1.[Pt+2].[Pt+2] is ____.
Result string: 113 % of control
